Measured values drawn from the supplement of paper PMC13380429 for this set.

Test system: HepG2
Test name: relative viability EC50 (midpoint between 100% and the lowest measured viability); higher = less toxic
Experimental conditions: 72 h
Each entry below carries its reported relative viability EC50.

Recorded results for 5 compounds are shown here.
[
  {
    "Compound": "OC[C@H]1O[C@@H](c2ccc(F)c(Cc3cc4ccccc4s3)c2)[C@H](O)[C@@H](O)[C@@H]1O [ipragliflozin-L-proline]",
    "relative viability EC50": "> 10 µM"
  },
  {
    "Compound": "C[C@]12CC[C@H](O)C[C@H]1CC[C@@H]1[C@@H]2C[C@@H](O)[C@]2(C)[C@@H](C3=CC(=O)OC3)CC[C@]12O [digoxigenin]",
    "relative viability EC50": "0.52 µM"
  },
  {
    "Compound": "O=C1C(O)=C([C@H]2CC[C@H](c3ccc(Cl)cc3)CC2)C(=O)c2ccccc21 [atovaquone]",
    "relative viability EC50": "> 10 µM"
  },
  {
    "Compound": "CNC(=O)c1ccccc1Nc1cc(Nc2ccc(N3CCOCC3)cc2OC)ncc1C(F)(F)F [VS-4718]",
    "relative viability EC50": "1.12 µM"
  },
  {
    "Compound": "COc1cc(C(=O)NS(=O)(=O)c2ccccc2C)ccc1Cc1cn(C)c2ccc(NC(=O)OC3CCCC3)cc12 [zafirlukast]",
    "relative viability EC50": "> 10 µM"
  }
]

Here's the next entry for you.
Test system HepG2; read-out relative viability EC50; what value for CCC(=O)N1CCN(c2ccc(-n3c(=O)ccc4cnc5ccc(-c6cnc7ccccc7c6)cc5c43)cc2C(F)(F)F)CC1 [torin-1] ?
0.684 µM
